system: 786-0; assay: NCI tumour cell line growth inhibition, 48 h
Calls of active or inactive are those of the source. No stated cut-off is given here; in the data, active = GI50 up to about 1.1 µM and inactive = higher.
measurement-type: GI50

Worked cases, GI50 given:
>>> df
                                   compound  measurement_type        observed_value
0  OC1c2ccccc2CC12Cc1ccccc1C2 (stereo not given)              GI50   > 100 µM (inactive)
1  Clc1ccc(Nc2nnc(CNc3ccc(-c4nnc(Nc5ccc(Cl)cc5)o4)cc3)o2)cc1              GI50       8 µM (inactive)
2  C/C=C1/CC(C(=O)OC)N(C(=O)OCc2ccccc2)C1=S (stereo not given)              GI50   > 100 µM (inactive)
3    CCNC(=S)Nc1c(C#N)c2n(c1C(=O)OCC)CCCCC2              GI50    76.4 µM (inactive)
4  COc1ccc(C)cc1-c1cc(Sc2ccccc2)c(-c2cc(C)ccc2OC)o1              GI50  > 31.6 µM (inactive)

Each of the following entries comes with a recorded value; kindly state GI50 for each.
1. C/C(=C/c1ccccc1)CN(C(=O)/C=C\Sc1ccccc1)C(C)(C)C
2. Cc1ccc(SC2C(=O)C3CC(OCc4ccccc4)C2(C)C3(C)C)cc1 (stereo not given)
3. CCc1nc2ccc(C(F)(F)F)cc2[nH]c1=O
4. Cc1cc(C)c2c(-c3ccccc3)cc(=O)[nH]c2c1
5. Clc1ccccc1-c1nnc2c(-c3ccccc3)nc3ccccc3n12
6. CC1CCC(O)C(C(O)CC2CC(=O)N(C)C(=O)C2)C1 (stereo not given)
7. NS(=O)(=O)c1cc2c(cc1Cl)NC(/C(=N/NC(=O)c1ccncc1)C1C(=O)NC(=O)NC1=O)=NS2(=O)=O

Outgoing:
> 100 µM (inactive)
> 100 µM (inactive)
> 100 µM (inactive)
> 100 µM (inactive)
40.9 µM (inactive)
> 100 µM (inactive)
> 100 µM (inactive)

* * *

tested on: K562; assay: NCI tumour cell line growth inhibition, 48 h
Active and inactive are the calls of the source. No stated cut-off is given here; in the data, active = GI50 up to about 1.1 µM and inactive = higher.
measurement-type: GI50

Each of the following entries comes with a recorded value; kindly state GI50 for each.
1. CC(C)(C)OC(=O)CC(NC(=O)OC(C)(C)C)C(=O)N[C@@H]1CCCC[C@H]1C(=O)OCc1ccccc1 (some centres undefined)
2. COc1ccc(/C=C\c2cc(OC)c(OC(C)=O)c(OC)c2)cc1

Outgoing:
["18.4 µM (inactive)", "2.03 µM (inactive)"]

Each of the following entries comes with a recorded value; kindly state GI50 for each.
1. CC1=C(C(=O)NCc2ccccc2)C(/C=C/c2ccccc2)C(C(=O)NCc2ccccc2)=C(C)N1
2. O=C1C(C(O)(C(F)(F)F)C(F)(F)F)CCC1C(O)(C(F)(F)F)C(F)(F)F (centres undefined)
3. Oc1ccc(NCc2cc(O)ccc2O)cc1
4. CCOC(=O)CCC(C(=O)OCC)n1nnc2ccc(Nc3c(C)[n+]([O-])c4cc(Cl)ccc4[n+]3[O-])cc21 (centres undefined)
5. C=C(C(=O)OC)c1cc2ccccc2n1S(=O)(=O)c1ccccc1
6. ClCc1nnc2n1-c1ccc(Cl)cc1SC2
7. COc1cccc(/C=C2\CCCc3ccccc3C2=O)c1

Outgoing:
> 100 µM (inactive)
3.64 µM (inactive)
19.2 µM (inactive)
22.6 µM (inactive)
2.34 µM (inactive)
2.9 µM (inactive)
16.1 µM (inactive)

Each of the following entries comes with a recorded value; kindly state GI50 for each.
1. CCOP(=O)(Nc1ccccc1P(=O)(OCC)OCC)OCC
2. C#CC[C@@]12CC(=O)C[C@@H]1CCC1(C2)OCCO1.C#CC[C@]12CC(=O)CC[C@H]1CC(=O)C2
3. COC(=O)C12Oc3ccc(-c4ccc5c(c4O)C(=O)C4=CCC(C)C(O)C4(C(=O)OC)O5)c(O)c3C(=O)C1=CCC(C)C2O (centres undefined)

Outgoing:
1. > 100 µM (inactive)
2. 59.7 µM (inactive)
3. 3.77 µM (inactive)

Each of the following entries comes with a recorded value; kindly state GI50 for each.
1. O=C1N(c2ccccc2)C2(c3ccccc3)CC3CCCC13S2 (centres undefined)
2. CCOC(=O)c1c(N2CCOCC2)[nH]c(=O)c(C(c2c(O)c(C(=O)OCC)c(N3CCOCC3)[nH]c2=O)C(C)C)c1O

Outgoing:
1: 38.7 µM (inactive); 2: > 100 µM (inactive)
